Target: Voltage-dependent T-type calcium channel subunit alpha-1G (Homo sapiens)
Sequence (O43497 whole entry): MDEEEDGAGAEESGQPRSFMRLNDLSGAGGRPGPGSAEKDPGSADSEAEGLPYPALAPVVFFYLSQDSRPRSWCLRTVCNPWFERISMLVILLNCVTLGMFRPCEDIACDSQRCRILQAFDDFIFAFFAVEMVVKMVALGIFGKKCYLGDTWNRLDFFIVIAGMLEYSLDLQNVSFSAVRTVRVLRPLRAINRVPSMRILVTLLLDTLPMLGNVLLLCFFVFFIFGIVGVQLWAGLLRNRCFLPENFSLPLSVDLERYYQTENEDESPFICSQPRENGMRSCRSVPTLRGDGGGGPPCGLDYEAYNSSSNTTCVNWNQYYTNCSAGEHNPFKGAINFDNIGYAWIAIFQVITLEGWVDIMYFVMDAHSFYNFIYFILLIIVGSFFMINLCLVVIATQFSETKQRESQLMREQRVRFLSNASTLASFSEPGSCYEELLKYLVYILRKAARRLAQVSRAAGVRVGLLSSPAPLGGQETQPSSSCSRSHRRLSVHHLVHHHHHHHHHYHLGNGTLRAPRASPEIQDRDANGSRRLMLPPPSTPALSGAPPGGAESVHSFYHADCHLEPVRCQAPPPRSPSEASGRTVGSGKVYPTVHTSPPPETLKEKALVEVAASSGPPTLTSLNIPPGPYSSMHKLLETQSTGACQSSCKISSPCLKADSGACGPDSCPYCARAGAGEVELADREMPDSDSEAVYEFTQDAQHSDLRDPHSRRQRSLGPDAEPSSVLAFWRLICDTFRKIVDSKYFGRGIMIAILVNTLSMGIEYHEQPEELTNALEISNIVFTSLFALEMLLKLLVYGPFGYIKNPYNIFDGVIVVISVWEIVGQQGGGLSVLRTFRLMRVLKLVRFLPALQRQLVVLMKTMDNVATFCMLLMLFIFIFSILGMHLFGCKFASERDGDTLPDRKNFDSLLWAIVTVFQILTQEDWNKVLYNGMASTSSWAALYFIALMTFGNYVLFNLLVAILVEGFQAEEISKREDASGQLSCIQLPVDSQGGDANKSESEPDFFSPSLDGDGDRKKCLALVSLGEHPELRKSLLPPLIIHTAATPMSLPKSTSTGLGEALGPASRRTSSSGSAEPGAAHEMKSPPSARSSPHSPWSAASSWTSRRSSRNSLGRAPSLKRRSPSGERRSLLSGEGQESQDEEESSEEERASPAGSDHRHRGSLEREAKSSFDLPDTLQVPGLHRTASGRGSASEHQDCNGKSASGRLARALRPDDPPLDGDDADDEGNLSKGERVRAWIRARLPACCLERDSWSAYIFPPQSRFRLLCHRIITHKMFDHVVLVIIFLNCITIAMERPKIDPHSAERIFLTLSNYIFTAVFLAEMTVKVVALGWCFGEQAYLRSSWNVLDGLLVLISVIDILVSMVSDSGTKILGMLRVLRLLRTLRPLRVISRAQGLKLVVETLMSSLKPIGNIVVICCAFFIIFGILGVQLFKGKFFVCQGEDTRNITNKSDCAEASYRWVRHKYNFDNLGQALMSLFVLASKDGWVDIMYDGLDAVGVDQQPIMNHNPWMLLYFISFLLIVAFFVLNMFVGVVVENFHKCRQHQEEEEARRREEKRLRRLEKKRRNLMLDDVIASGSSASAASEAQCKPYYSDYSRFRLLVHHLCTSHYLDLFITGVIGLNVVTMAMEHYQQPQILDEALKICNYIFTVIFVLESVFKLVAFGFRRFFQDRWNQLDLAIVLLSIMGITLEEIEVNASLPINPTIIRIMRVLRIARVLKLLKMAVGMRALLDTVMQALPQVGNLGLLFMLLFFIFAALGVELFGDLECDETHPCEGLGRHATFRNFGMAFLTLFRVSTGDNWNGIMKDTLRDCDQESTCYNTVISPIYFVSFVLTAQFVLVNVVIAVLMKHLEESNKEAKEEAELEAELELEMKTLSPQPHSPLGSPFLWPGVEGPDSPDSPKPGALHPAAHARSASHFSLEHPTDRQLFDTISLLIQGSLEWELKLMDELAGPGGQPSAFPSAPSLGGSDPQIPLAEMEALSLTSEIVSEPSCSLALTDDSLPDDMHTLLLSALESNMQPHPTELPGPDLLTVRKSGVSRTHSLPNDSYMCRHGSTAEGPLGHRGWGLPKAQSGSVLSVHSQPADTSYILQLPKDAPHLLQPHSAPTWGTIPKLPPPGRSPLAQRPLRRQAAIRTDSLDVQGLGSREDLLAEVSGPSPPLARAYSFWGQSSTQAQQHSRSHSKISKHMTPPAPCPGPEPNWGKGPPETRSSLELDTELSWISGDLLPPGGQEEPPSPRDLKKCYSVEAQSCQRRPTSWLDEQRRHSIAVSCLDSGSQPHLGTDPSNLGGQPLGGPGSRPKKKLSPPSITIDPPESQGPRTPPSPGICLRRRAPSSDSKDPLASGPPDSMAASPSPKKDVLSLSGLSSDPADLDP
Assay: Inhibition of recombinant human Cav3.1 expressed in HEK293 cells assessed as reduction in KCl-induced increase in intracellular calcium level at 10 uM by fura-2 AM indicator based FDSS assay relative to control
Format: cell-based
quantity kind: inhibition (%)
Give the value, in units of %, as a plain number.

Input: Report inhibition, nothing else, for this compound: COC(=O)C1=C(C)NC(C)=C(C(=O)NC[C@H]2CCN(CCc3ccc(Cl)c(Cl)c3)C2)C1c1cccc([N+](=O)[O-])c1 (some centres undefined)
Output: 32.5

Input: Report inhibition, nothing else, for this compound: CC(C)c1cc(C(=O)NC[C@H]2CCNC2)on1
Output: 11.4

Input: Report inhibition, nothing else, for this compound: CC(C)c1cc(C(=O)NC[C@H]2CCN(Cc3cccnc3)C2)on1
Output: 2.4

Input: Report inhibition, nothing else, for this compound: CC(C)c1cc(C(=O)NC[C@H]2CCN(CCc3ccc(C(F)(F)F)cc3)C2)on1
Output: 48.7

Input: Report inhibition, nothing else, for this compound: COC(=O)C1=C(C)NC(C)=C(C(=O)NC[C@H]2CCNC2)C1c1cccc([N+](=O)[O-])c1 (some centres undefined)
Output: 5.49

Input: Report inhibition, nothing else, for this compound: CC(C)c1cc(C(=O)NC[C@H]2CCN(CCC(C)(C)C)C2)on1
Output: 23.3

Input: Report inhibition, nothing else, for this compound: CC(C)c1cc(C(=O)NC[C@H]2CCN(CCc3ccc(OC(F)(F)F)c(F)c3)C2)on1
Output: 36.4

Input: Report inhibition, nothing else, for this compound: CC(C)c1cc(C(=O)NC[C@H]2CCN(CCc3ccc(Cl)c(F)c3)C2)on1
Output: 59.9

Input: Report inhibition, nothing else, for this compound: Cc1ccc(CCN2CC[C@H](CNC(=O)c3cc(C(C)C)no3)C2)cc1C(F)(F)F
Output: 46.8
